assayed target: T1, Cyk3, Q07533
T1 sequence (Q07533 1-83, looked up): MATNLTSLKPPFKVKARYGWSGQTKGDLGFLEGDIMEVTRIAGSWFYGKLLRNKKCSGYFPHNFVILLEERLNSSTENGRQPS
experimental protocol: SPOT array
measurement context: median of control spots 1451
measured attribute: SPOT intensity

RRTRLRPPTPLSQLL 7
NSMRPPLLIPAATTK 0
GATNNAPTLPKRKNP 0
LKQRFFLMFPKSIIW 4
FPPKRKPLLRPQRSD 3

(A) GERSRPLVISILSSA
(B) STKKPRPPVKSKPKH
Query: Hi team, can someone confirm which has the larger SPOT intensity: A or B ? Thanks. Identify your selection by its label.
Reply: B
(B: 3, A: 0)

(I) MTKTPETSPPKRPMG
(II) LPPPPPPPPPPPLPQ
(III) NFFRKKLGIPRKLKR
(IV) RLSRLLLSLPPESFT
Query: Please list these binders in decreasing order of SPOT intensity. Return value: ordered labels per request.
Reply: III, IV, II, I
(III: 4, IV: 2, II: 1, I: 0)
